tested-system: Hsp90
Construct: C-terminus of Hsp90 (C-Hsp90, 629–732, 15 kDa), His-tagged
protocol-description: intrinsic fluorescence quenching titration with purified Hsp90 domains
measured-property: Kd
Please don't drop the unit; write it after the number.

Summary: O=C(/C=C/c1cccnc1)C(Cc1ccccc1Cl)C(=O)/C=C/c1cccnc1 , Hsp90, Kd = 15.3 µM

// provenance: paper PMC7523331
